Entry source: ChEMBL document CHEMBL6103550

Examples of compounds with documented Activity follow.
Target: UniProtKB P18146
Sequence (P18146 whole entry, looked up): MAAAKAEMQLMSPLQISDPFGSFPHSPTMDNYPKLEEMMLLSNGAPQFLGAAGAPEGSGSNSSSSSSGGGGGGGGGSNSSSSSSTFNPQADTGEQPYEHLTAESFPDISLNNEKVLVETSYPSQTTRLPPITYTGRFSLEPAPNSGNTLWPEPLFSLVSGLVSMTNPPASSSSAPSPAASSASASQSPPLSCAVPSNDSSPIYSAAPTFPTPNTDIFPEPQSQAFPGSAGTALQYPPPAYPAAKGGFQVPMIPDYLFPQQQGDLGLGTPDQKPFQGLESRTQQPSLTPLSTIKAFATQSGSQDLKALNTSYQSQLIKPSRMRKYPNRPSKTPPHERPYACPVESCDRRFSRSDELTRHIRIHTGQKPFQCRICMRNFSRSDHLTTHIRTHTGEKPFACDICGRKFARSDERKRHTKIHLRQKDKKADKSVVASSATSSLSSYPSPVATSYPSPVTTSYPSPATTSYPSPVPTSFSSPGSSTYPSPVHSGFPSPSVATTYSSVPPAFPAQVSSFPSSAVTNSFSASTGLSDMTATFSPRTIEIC
Assay: Disruption of EGR-1-DNA binding in human HaCaT cell nuclear extract at 50 uM in the presence of biotin-EBS oligonucleotide probe (5'-CAAAAAGGAGGAAGGTGAGGGAA-biotin-3') and poly(dI-dC) by EMSA analysis relative to control
Type: subcellular

{"columns": ["compound", "Activity, %"],
 "data": [
  ["COc1ccc(C2CC(c3ccc4ccccc4c3O)=NN2C(=S)Nc2ccccc2OC)c(OC)c1 (stereo unspecified)", 46],
  ["COc1cc(NC(=S)N2N=C(c3c(O)cccc3OC)CC2c2ccc(OC)c3ccccc23)cc(OC)c1OC (stereo unspecified)", 71.8],
  ["COc1cc(O)c(C2=NN(C(=S)Nc3cc(OC)c(OC)c(OC)c3)C(c3ccc(OC)c4ccccc34)C2)cc1OC (stereo unspecified)", 59.1],
  ["COc1ccccc1NC(=S)N1N=C(c2ccccc2O)CC1c1ccc(OC)c2ccccc12 (stereo unspecified)", 29.1],
  ["COc1cccc(NC(=S)N2N=C(c3ccc4ccccc4c3O)CC2c2cc(OC)c(OC)cc2OC)c1 (stereo unspecified)", 55.5],
  ["COc1cc(O)c(C2=NN(C(=S)Nc3ccccc3)C(c3ccc(OC)c4ccccc34)C2)c(OC)c1 (stereo unspecified)", 73.3],
  ["COc1cccc(NC(=S)N2N=C(c3c(O)cc(OC)cc3OC)CC2c2cccc3ccccc23)c1 (stereo unspecified)", 53.3],
  ["COc1ccc(NC(=S)N2N=C(c3ccc4ccccc4c3O)CC2c2c(OC)cc(OC)cc2OC)cc1 (stereo unspecified)", 64.2],
  ["COc1cc(O)c(C2=NN(C(=S)Nc3cc(OC)c(OC)c(OC)c3)C(c3cccc4ccccc34)C2)cc1OC (stereo unspecified)", 42.4],
  ["COc1ccc(C2CC(c3ccc4ccccc4c3O)=NN2C(=S)Nc2cc(OC)c(OC)c(OO)c2)cc1 (stereo unspecified)", 70.5],
  ["COc1ccc(NC(=S)N2N=C(c3ccc4ccccc4c3O)CC2c2ccc(OC)c(OC)c2OC)cc1 (stereo unspecified)", 49.5],
  ["COc1cc(O)c(C2=NN(C(=S)Nc3ccccc3OC)C(c3ccc(OC)c4ccccc34)C2)c(OC)c1 (stereo unspecified)", 70.7],
  ["COc1ccc(C2=NN(C(=S)Nc3cc(OC)c(OC)c(OC)c3)C(c3ccc(OC)c4ccccc34)C2)c(O)c1 (stereo unspecified)", 73.3],
  ["COc1cccc(NC(=S)N2N=C(c3ccc4ccccc4c3O)CC2c2ccc(OC)cc2OC)c1 (stereo unspecified)", 48],
  ["COc1ccc(C2=NN(C(=S)Nc3ccccc3)C(c3cccc4ccccc34)C2)c(O)c1 (stereo unspecified)", 35.1],
  ["COc1cccc(NC(=S)N2N=C(c3ccc(OC)cc3O)CC2c2ccc(OC)c3ccccc23)c1 (stereo unspecified)", 56.4]
]}
